Cited source: patent US7112553B1

Record form. Attribute: PRCO (Percentage Reduction from Control) PUCCRT Prot. Fill in for each entry.
test system: Puccinia recondita (PUCCRT) on wheat; conditions: in vivo
Numbers only here, please. The scale is %.

// returns reported PRCO (Percentage Reduction from Control) PUCCRT Prot for input CCCC(C)n1nc2ccc(CC(=O)Nc3snc(C)c3Cl)cc2n1 (stereo not shown) 100

Follow-up item: CCC(C)n1nc2ccc(CC(=O)Nc3snc(C)c3Cl)cc2n1 (stereo not shown) 100

Same read-out for CCCn1nc2ccc(CC(=O)Nc3snc(C)c3Cl)cc2n1 ? 100

Ok, now CCCCCn1nc2ccc(CC(=O)Nc3snc(C)c3Cl)cc2n1 99
